glass transition temperature by entry:
The response must be a number in °C with no trailing unit.

# example entries with known answers
*/N=N/c1ccc(Nc2ccc(C(=O)c3ccc(C(=O)c4ccc(Nc5ccc(*)cc5)cc4)cc3)cc2)cc1 (repeat unit); 203.00
*Nc1cc(NC(=O)CCCCC(*)=O)cc(-c2nnc(-c3ccccn3)o2)c1 (repeat unit); 159.00
*CC(*)(C)C(=O)OCCCCCCCCCCOc1ccc(C(=O)Oc2ccc(C(=O)/C=C/c3c(C)c4ccccc4n3C)cc2)cc1 (repeat unit); 72.00
*CCCCCCCCOc1ccc(/C=C2\CCC/C(=C\c3ccc(O*)c(OC)c3)C2=O)cc1OC (repeat unit); 72.00
*c1ccc(Oc2ccc(N3C(=O)c4cc(-c5ccc(C(C)(C)C)cc5)c(-c5cc6c(cc5-c5ccc(C(C)(C)C)cc5)C(=O)N(*)C6=O)cc4C3=O)cc2)cc1 (repeat unit); 370.00

Read the next record carefully.
Prompt: Given *c1ccc(Oc2ccc(Oc3ccc(N4C(=O)c5ccc(Oc6ccccc6Oc6ccc7c(c6)C(=O)N(*)C7=O)cc5C4=O)cc3C(F)(F)F)cc2)c(C(F)(F)F)c1 (repeat unit) , state its recorded glass transition temperature.
Response: 197.00

----------
observed-property: glass transition temperature (°C)
Numbers only; they are read as °C.

*C(=O)c1cc(C(=O)c2ccc3c(c2)C(=O)N(c2ccc(Oc4ccc(N5C(=O)c6ccc(*)cc6C5=O)cc4)cc2)C3=O)cc(-c2ccccc2)c1 (repeat unit); 258.50
*C(=O)Nc1ccc(Oc2ccc(C(C)(C)c3ccc(Oc4ccc(NC(=O)c5ccc(N6C(=O)c7ccc(*)cc7C6=O)cc5)cc4)cc3)cc2)cc1 (repeat unit); 216.00
*C(=O)c1ccc(Oc2ccc(C(C)(C)c3ccc(Oc4ccc(C(=O)c5ccc6c(c5)C(=O)N(c5ccc(Oc7ccc(N8C(=O)c9ccc(*)cc9C8=O)cc7)cc5)C6=O)cc4)cc3)cc2)cc1 (repeat unit); 217.00
*C(=O)c1ccc2c(c1)C(=O)N(c1cc(Br)c(Oc3c(Br)cc(N4C(=O)c5ccc(*)cc5C4=O)cc3Br)c(Br)c1)C2=O (repeat unit); 323.00

Prompt: Please give the measured glass transition temperature for this molecule: *CCC1CC(*)C2CCCC12 (repeat unit)
Response: 101.00

Prompt: So what does the record say about glass transition temperature for *CCc1ccc(*)c(C)c1 (repeat unit) ?
Response: 55

Prompt: Param item = *Oc1ccc(S(=O)(=O)c2ccc(Oc3ccc(NC(=O)c4cccc(C(=O)Nc5ccc(*)cc5)c4)cc3)cc2)cc1 (repeat unit) ; retrieve measured glass transition temperature.
Response: 260.00

Prompt: Find the recorded glass transition temperature belonging to *Oc1ccc(S(=O)(=O)c2ccc(Oc3ccc(C(C)(C)c4ccc(*)c(C)c4)cc3C)cc2)cc1 (repeat unit) and report it.
Response: 180.00

Prompt: So what does the record say about glass transition temperature for *c1cccc(Cc2cccc(N3C(=O)c4ccc([Si](C)(C)c5ccc(-c6ccc([Si](C)(C)c7ccc8c(c7)C(=O)N(*)C8=O)cc6)cc5)cc4C3=O)c2)c1 (repeat unit) ?
Response: 285.00

Prompt: Suppose we examine the molecule *C1CCOC1* (repeat unit) ; what glass transition temperature value has been reported?
Response: 131.00

Prompt: Item under review: *c1cccc(N2C(=O)C(=O)N(c3ccc(Cc4ccc(N5C(=O)C(=O)N(*)C5=O)cc4)cc3)C2=O)n1 (repeat unit) . Reported glass transition temperature?
Response: 237.00

Prompt: Look up glass transition temperature: *O[Si](C)(C)C#Cc1ccc(C#C[Si](*)(C)C)cc1 (repeat unit)
Response: 126.00

Prompt: Value lookup for glass transition temperature; key = *c1ccc(S(=O)(=O)c2ccc(-n3nc(-c4ccccc4)c4cc(Oc5ccc(C(C)(C)c6ccc(Oc7ccc8c(-c9ccccc9)nn(*)c(=O)c8c7)cc6)cc5)ccc4c3=O)cc2)cc1 (repeat unit)
Response: 210.50

Prompt: Data request, read-out glass transition temperature, for *CCCCOc1ccc(OCCCCc2nnc(-c3ccc(-c4nnc(*)o4)cc3)o2)c(C)c1 (repeat unit)
Response: 129.00
